# MEASURED TARGET: T1, human CD3 expressed on cells (Jurkat, a CD3+ human T-cell line; human T cells) (human, UniProt P07766 23-126; P04234 22-100)
# T1 construct: also called FACS JURKAT
# T1 chain 1: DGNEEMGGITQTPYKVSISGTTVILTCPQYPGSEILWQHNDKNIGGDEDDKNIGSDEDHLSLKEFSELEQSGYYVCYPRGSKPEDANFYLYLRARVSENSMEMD
# T1 chain 2: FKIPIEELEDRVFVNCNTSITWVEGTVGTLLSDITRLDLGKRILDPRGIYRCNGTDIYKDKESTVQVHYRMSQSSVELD
# MEASUREMENT NOTES: FACS on Jurkat cells
RECORDED ENDPOINT: pEC50
By convention, pEC50 is the negative base-10 log of a molar concentration.

Prompt: Query (binder): BS3/20-004 (bispecific antibody, V domains shown) VH 1: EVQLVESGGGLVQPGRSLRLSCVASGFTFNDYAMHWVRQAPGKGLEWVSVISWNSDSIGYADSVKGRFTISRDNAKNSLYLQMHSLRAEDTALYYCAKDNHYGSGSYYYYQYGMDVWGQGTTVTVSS VH 2: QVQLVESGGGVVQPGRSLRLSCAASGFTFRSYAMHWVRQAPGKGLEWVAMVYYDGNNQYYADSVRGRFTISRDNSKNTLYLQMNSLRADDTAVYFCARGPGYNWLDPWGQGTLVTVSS VL: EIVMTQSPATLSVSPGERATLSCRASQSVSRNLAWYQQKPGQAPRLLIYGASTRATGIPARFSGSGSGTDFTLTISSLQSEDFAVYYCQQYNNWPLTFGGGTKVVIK ; field requested: pEC50
Completion: 7.31
